system.under.test: T1, monomeric CD22 (Acro Biosystems) (UniProt P20273 20-687)
T1 construct: Bought protein; also called CD22 antigen; soluble CD22 protein
T1 sequence (looked up): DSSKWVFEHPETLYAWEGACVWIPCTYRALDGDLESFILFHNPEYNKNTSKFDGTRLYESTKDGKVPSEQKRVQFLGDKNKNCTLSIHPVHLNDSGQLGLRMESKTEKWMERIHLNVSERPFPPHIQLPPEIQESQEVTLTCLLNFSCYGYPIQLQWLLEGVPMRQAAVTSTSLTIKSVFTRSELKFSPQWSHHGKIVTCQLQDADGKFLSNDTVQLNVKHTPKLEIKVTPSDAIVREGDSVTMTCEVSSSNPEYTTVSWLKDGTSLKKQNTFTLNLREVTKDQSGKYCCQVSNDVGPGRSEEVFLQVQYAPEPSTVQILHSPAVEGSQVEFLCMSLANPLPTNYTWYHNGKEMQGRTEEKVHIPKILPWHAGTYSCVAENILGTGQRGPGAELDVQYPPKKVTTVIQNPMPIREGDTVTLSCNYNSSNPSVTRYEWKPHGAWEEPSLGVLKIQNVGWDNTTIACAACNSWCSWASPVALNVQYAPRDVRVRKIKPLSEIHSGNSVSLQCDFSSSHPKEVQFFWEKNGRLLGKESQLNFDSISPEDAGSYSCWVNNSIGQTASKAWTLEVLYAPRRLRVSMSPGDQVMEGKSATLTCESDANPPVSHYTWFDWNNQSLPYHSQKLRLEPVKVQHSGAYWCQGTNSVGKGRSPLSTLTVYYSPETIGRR
test.protocol: BLI (ForteBio Octet Red), VHH-Fc captured on anti-human IgG Fc sensor, monomeric CD22 at 250 nM
# koff per record follows

{"columns": ["binder", "result.unit", "koff"],
 "data": [
  ["PROT739 (A01) VHH-Fc fusion protein (Fc fusion, VHH fused to the human IgG1 Fc domain; not shown: human IgG1 Fc domain) EVQLLESGGGLVQPGGSLRLSCAASGLTSYSYAMGWYRQAPGKEREFVSAISSGGSAYYADSVKGRFTISRDNSKNTLYLQMNSLRAEDTAVYYCAVGPYYGFRAVTEADYWGQGTQVTVSS", "s⁻¹", 0.0102],
  ["PROT265 (D04) VHH-Fc fusion protein (Fc fusion, also called CD22_D04; not shown: human IgG1 Fc domain) QVQLVESGGGLVQAGGSLRLSCAASGSEFTGYPMGWFRQAPGKEREFVAGSVGIGGSTNYADSVKGRFTISRDNAKNTVYLQMNSLKPEDTAVYYCAADKDYYKPYSRYRTVIRYETWGQGTQVTVSS", "s⁻¹", 0.00257],
  ["PROT740 (E04) VHH-Fc fusion protein (Fc fusion, VHH fused to the human IgG1 Fc domain; not shown: human IgG1 Fc domain) EVQLLESGGGLVQPGGSLRLSCAASGFTSSSYVMGWYRQAPGKEREFVSSISTGGDAYYADSVKGRFTISRDNSKNTLYLQMNSLRAEDTAVYYCAADVWYYHGGAYDYWGQGTQVTVSS", "s⁻¹", 0.000536],
  ["PROT810 (D04-AM-D11) VHH-Fc fusion protein (Fc fusion, I took that entry to be D04-AM-D11 on the strength of the name; also called DO4-D11-CD22 VHH; not shown: human IgG1 Fc domain) QVQLVESGGGLVQAGGSLRLSCAASGSEFTGYPMGWFRQAPGKEREFVAGSVGIGGSTNYADSVKGRFTISRDNAKNTVYLQMNSLKPEDTAVYYCAADKDYYKPYSRYRTAIRYDTWGQGTQVTVSS", "s⁻¹", 0.000657]
]}
